# method-description: yeast display, Sf9 membrane polyspecificity reagent, FACS + sequencing; frameworks hold sequencing errors

| residue-string | polyreactivity (PSR sort gate) |
| --- | --- |
| QVQLVESGGGLVQAGGSLRLSCAASVYTFSKNTMGWYRQAPGKEREFVAAINWSGGSTYYADSVKGRFTISRDNAKNTVYLQMNSLKPEDTAVYYFAARRGGRRGYDYWGQGTQVTVSS | high polyreactivity |
| QVQLVESGGGLVQAGGSLRLSCAASGRTFRGYVMGWYRQAPGKERELVAAISKSGGSTYYADSVKGRFTISRDNAKNTVYLQMNSLKPEDTAVYYCSKNYRYSVFYDGFDYWGQGTQVTVSS | low polyreactivity |
| QVQLVESGGGLVQAGGSLRLSCAASGFIFIKYAMGWYRQAPGKERELLAASSFRGGRTYYADSVKGRFTISRDNAKNTVYLQMNSLNPEETAVYYCAAETRDYSEGYYWGQGTQVTVSS | high polyreactivity |
| QVQLVESGGGLVQAGGSLRLSCAASGFTFSSYAMGWYRQAPGKERELVARISSGSSTNYADSVKGRFTISRDNAKNTVYLQMNSLKPEDTAVYYCAARYTARRQSYGYWGQGTQVTVSS | high polyreactivity |
| QVQLVESGGGLVQAGGSLRLRCAASGSIFPWYAMGWYRQAPGKERELVAAITISGGSTHYADSVKGRFTISRDNAKNTVYLQMNCLKPEDTAVYYCATPRYPSYDYWGQGTQVTVSS | low polyreactivity |
| QVQLVESGGGLVQAGGSLRLSCAASGITSYYYTMGWYRQAPGKERELVAAITSGGSTYYADSVKGRFTISRDNAKNSVYLQMNSLKPEDTAVYYCTADNPRYRGSKYGPYDDYNYWGQGTQVTVSS | low polyreactivity |
| QVQLVESGGGLVQAGGSLRLSCAASGRTFALYAMAWYRQAPGKERELVASISWRGGSTYYADSVKGRFTISRDNAKNTVYLQMNSLKPEDTAVYYCAADTWSYGPLNYRLEYWGQGTQVTVSS | low polyreactivity |
| QVQLVESAGGLLQTGGSLRLSCAASGRTLWYNAMGWYRQAPGKERELVAAISSGGSTNYADSVKGRFTISRDNAKHTVYLQMNSLKPEDTAVYYCAAWLAYSSRYGYWGQGTQVTVSS | low polyreactivity |
| QVQLVESGGGLVQAGGTLRLSCAASGLTFARYAMGWYRQAPGKERELVAGIDSTGGTTYYADSVKGRFTISRDNAKNTFYLQMISLIPEDTAVYYCNTGGTFLDWVRSPFGFGYWGQGTQVTVSS | low polyreactivity |
| QVQLVESGGGLVQAGGSLRLSCAASGSIFVPYAMGWYRQAPGKERELVAAITRSSGSTYYADSVKGRFTISRDNAKNTVYLQMNSLKPEDTAVYYCAADFLLEFDYWGQGTQVTVSS | low polyreactivity |
| QVQLVESGGGIVQAGGSLRLSCAASGSIFRRNALGWYRQAPGKERELVAAISSIGSSTYYADSVKGRFTISRENAKNTVYFQMNSLKPEDTAVYYCAAVFYYATYSKKFEYWGQGTQVTVSS | high polyreactivity |
| QVQLVESGGGLVQAGGSLRLSCAASGITFRRYTMGWYRQAPGKERELVAAISRTGGSTYYADSVKGRFTISRDNAKNTVYLQMNSLKPEDTAVYYCAARPHRYTSRHGYWGQGTQVTVSS | high polyreactivity |
| QVQLVESGGGLVQAGGSLRLSCAASGRIFRWYAMGWYRQAPGKERELVASISSGGSTNYADSVKGRFTISRDNAKNTVYLQLNSLKPEDTAVYYCAADFATPGPAYDYWGEGTQVTVSS | low polyreactivity |
| QVQLVESGGGLVQAGGSLRLSCASSVRIFGSNVMGWYRQAPGKERELVASISSGGNTYYADSVKGRFTISRDNAKNTVYLQMNSLKPEDTAVYYCAARRGSAGQWYDYWGQGTQVTVSS | high polyreactivity |
